Biological target: KDR (Homo sapiens (Human), UniProt P35968)
Sequence (P35968 20-1356): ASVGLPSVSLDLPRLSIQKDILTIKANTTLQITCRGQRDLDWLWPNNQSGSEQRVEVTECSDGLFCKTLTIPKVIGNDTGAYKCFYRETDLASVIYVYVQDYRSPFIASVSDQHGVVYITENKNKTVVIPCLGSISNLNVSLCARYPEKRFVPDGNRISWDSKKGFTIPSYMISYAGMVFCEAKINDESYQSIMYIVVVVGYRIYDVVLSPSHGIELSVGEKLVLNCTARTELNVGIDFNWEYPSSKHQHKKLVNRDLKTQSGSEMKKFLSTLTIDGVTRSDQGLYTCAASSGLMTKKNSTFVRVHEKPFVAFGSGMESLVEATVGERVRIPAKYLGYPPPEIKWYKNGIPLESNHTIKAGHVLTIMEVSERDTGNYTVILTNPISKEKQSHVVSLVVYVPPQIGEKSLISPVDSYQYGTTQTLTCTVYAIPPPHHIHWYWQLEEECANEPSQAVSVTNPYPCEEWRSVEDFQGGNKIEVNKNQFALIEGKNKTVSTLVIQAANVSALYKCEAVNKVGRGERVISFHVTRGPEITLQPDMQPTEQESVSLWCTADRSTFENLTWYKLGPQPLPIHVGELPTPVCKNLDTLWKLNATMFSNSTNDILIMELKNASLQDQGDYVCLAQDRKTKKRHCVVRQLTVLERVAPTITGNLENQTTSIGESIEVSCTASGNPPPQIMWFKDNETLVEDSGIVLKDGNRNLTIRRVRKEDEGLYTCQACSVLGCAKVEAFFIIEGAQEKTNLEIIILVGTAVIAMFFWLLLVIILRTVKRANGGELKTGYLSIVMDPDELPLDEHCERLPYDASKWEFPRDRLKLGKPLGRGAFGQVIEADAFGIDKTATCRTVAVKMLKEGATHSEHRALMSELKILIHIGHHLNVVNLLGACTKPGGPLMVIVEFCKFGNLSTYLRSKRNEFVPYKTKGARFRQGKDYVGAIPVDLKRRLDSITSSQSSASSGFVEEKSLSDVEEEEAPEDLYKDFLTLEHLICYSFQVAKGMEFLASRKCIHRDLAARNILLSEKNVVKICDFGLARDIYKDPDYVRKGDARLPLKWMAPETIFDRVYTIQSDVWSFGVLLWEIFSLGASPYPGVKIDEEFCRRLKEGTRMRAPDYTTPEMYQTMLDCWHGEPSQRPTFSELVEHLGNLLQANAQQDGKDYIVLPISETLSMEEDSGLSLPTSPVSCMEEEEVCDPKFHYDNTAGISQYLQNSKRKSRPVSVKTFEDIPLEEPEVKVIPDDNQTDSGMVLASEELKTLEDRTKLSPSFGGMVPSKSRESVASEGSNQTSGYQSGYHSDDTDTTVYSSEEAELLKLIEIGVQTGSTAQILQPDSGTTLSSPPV
Assay: KDR autophosphorylation ELISA in HUVEC cells
Conditions: cellular, VEGF165 stimulated
readout.kind: IC50

Ask: Which measured IC50 value corresponds to CNc1cc2nccc(Oc3ccc(NC(=O)C4(C(=O)Nc5ccc(F)cc5)CC4)cc3)c2cc1C(N)=O ?
Result: 10 to 100 nM

Ask: Which measured IC50 value corresponds to CCC1NC(=O)c2cc3c(Oc4ccc(NC(=O)C5(C(=O)Nc6ccc(F)cc6)CC5)cc4)ccnc3cc2O1 (centres unmarked) ?
Result: 100 to 300 nM

Ask: Which measured IC50 value corresponds to COc1cc2nccc(Oc3ccc(NC(=O)C4(C(=O)Nc5ccc(F)cc5)CC4)cc3)c2cc1-c1cnco1 ?
Result: ≤ 10 nM

Ask: Which measured IC50 value corresponds to COc1cc2nccc(Oc3ccc(NC(=O)C4(C(=O)Nc5ccc(F)cc5)CC4)cc3)c2cc1-c1ccn[nH]1 ?
Result: ≤ 10 nM

Ask: Which measured IC50 value corresponds to COc1cc2nccc(Oc3ccc(NC(=O)C4(C(=O)Nc5ccc(F)cc5)CC4)cc3)c2cc1N1CC(F)(F)C1 ?
Result: 10 to 100 nM

Ask: Which measured IC50 value corresponds to COc1cc2nccc(Oc3ccc(NC(=O)C4(C(=O)Nc5ccc(F)cc5)CC4)cc3)c2cc1-c1cnn(C)c1 ?
Result: ≤ 10 nM

Ask: Which measured IC50 value corresponds to Cc1cc2c(Oc3ccc(NC(=O)C4(C(=O)Nc5ccc(F)cc5)CC4)cc3)ccnc2cc1C(N)=O ?
Result: 10 to 100 nM

Ask: Which measured IC50 value corresponds to O=C(NOC[C@@H](O)CO)c1ccc2c(Oc3ccc(NC(=O)C4(C(=O)Nc5ccc(F)cc5)CC4)cc3)ccnc2c1 ?
Result: 100 to 300 nM

Ask: Which measured IC50 value corresponds to COc1cc2nccc(Oc3ccc(NC(=O)C4(C(=O)Nc5ccc(F)cc5)CC4)cc3)c2cc1N1CC(O)C1 ?
Result: ≤ 10 nM

Ask: Which measured IC50 value corresponds to NC(=O)c1cc2c(Oc3ccc(NC(=O)C4(C(=O)Nc5ccc(F)cc5)CC4)cc3)ccnc2cc1OCCCN1CCOCC1 ?
Result: ≤ 10 nM

Ask: Which measured IC50 value corresponds to COc1cc2nccc(Oc3ccc(NC(=O)C4(C(=O)Nc5ccc(F)cc5)CC4)cc3)c2cc1C(=O)O ?
Result: > 300 nM

Ask: Which measured IC50 value corresponds to CONC(=O)c1cc2c(Oc3ccc(NC(=O)C4(C(=O)Nc5ccc(F)cc5)CC4)cc3)ccnc2cc1OC ?
Result: ≤ 10 nM

Ask: Which measured IC50 value corresponds to O=C(NOCCO)c1ccc2c(Oc3cc(F)c(NC(=O)C4(C(=O)Nc5ccc(F)cc5)CC4)cc3F)ccnc2c1 ?
Result: 100 to 300 nM

Ask: Which measured IC50 value corresponds to O=C(NOC1COC1)c1ccc2c(Oc3ccc(NC(=O)C4(C(=O)Nc5ccc(F)cc5)CC4)cc3)ccnc2c1 ?
Result: 100 to 300 nM

###

For each entry below, report its IC50 value.
Target: Met (Homo sapiens (Human), UniProt P08581)
Sequence (P08581 25-1390): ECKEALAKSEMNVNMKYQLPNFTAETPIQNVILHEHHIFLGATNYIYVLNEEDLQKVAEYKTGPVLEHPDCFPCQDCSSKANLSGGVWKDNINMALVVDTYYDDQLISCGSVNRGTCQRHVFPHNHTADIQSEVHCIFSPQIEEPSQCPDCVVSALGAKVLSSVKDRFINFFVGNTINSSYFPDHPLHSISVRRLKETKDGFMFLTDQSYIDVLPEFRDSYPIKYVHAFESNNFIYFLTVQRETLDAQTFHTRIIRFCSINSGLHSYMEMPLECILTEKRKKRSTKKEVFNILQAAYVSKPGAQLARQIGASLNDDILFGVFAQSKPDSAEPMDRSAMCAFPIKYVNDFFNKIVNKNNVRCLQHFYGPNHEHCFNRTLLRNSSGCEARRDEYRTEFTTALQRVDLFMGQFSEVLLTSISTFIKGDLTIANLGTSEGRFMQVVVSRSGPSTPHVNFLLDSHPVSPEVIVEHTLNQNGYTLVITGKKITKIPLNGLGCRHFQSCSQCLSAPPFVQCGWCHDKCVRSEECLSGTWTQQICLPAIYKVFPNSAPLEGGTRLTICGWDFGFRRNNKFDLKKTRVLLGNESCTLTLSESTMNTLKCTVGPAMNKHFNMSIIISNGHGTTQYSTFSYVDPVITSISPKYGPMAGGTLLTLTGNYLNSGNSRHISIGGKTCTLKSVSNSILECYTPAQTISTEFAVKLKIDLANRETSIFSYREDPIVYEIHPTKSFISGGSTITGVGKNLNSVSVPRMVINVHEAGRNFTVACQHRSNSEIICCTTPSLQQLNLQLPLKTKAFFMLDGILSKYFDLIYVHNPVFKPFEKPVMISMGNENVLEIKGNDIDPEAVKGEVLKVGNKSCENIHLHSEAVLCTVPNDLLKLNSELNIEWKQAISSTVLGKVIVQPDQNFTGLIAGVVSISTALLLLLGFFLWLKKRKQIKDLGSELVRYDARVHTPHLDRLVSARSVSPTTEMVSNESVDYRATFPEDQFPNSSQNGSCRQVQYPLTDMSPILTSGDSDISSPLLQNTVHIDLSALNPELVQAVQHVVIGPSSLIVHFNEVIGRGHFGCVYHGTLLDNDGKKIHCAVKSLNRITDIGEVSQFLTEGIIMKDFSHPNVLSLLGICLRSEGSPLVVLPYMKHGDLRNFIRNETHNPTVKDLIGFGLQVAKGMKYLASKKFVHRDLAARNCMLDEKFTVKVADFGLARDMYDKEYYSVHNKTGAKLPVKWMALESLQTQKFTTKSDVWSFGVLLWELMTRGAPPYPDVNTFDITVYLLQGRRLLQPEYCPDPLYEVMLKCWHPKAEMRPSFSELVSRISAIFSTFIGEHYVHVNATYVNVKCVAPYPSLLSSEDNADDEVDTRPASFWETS
Assay: Met autophosphorylation ELISA in PC-3 cells
Details: cellular, HGF stimulated, read-out: c-Met IC50

Ask: Which measured IC50 value corresponds to CNC(=O)c1cc2nccc(Oc3ccc(NC(=O)C4(C(=O)Nc5ccc(F)cc5)CC4)cc3)c2cc1OC ?
Result: 100 to 300 nM

Ask: Which measured IC50 value corresponds to COc1cc2nccc(Oc3ccc(NC(=O)C4(C(=O)Nc5ccc(F)cc5)CC4)cc3)c2cc1-c1ccc[nH]1 ?
Result: 10 to 100 nM

Ask: Which measured IC50 value corresponds to COc1cc2nccc(Oc3ccc(NC(=O)C4(C(=O)Nc5ccc(F)cc5)CC4)cc3Cl)c2cc1C(N)=O ?
Result: ≤ 10 nM

Ask: Which measured IC50 value corresponds to CO/N=C/c1cc2c(Oc3ccc(NC(=O)C4(C(=O)Nc5ccc(F)cc5)CC4)cc3)ccnc2cc1OC ?
Result: 100 to 300 nM

###

For each entry below, report its IC50 value.
Molecular target: KDR (Homo sapiens (Human), UniProt P35968)
Test: KDR autophosphorylation ELISA in HUVEC cells
Details: cellular, VEGF165 stimulated

Ask: Which measured IC50 value corresponds to COc1cc2nccc(Oc3ccc(NC(=O)C4(C(=O)Nc5ccc(F)cc5)CC4)cc3)c2cc1C(=O)NC[C@H]1CCCN1 ?
Result: 10 to 100 nM

Ask: Which measured IC50 value corresponds to NC(=O)c1ccc2nccc(Oc3ccc(NC(=O)C4(C(=O)Nc5ccc(F)cc5)CC4)cc3)c2c1 ?
Result: 100 to 300 nM

Ask: Which measured IC50 value corresponds to COc1cc2nccc(Oc3ccc(NC(=O)C4(C(=O)Nc5ccc(F)cc5)CC4)cc3)c2cc1C(=O)NOCC(O)CO (single isomer, unassigned) [Compound 30] ?
Result: 10 to 100 nM

Ask: Which measured IC50 value corresponds to CNC(=O)c1cc2c(Oc3ccc(NC(=O)C4(C(=O)Nc5ccc(F)cc5)CC4)cc3F)ccnc2cc1OC ?
Result: ≤ 10 nM

Ask: Which measured IC50 value corresponds to O=C(Nc1ccc(F)cc1)C1(C(=O)Nc2ccc(Oc3ccnc4cc(OCCO)c(-c5ncco5)cc34)cc2)CC1 ?
Result: ≤ 10 nM

Ask: Which measured IC50 value corresponds to NC(=O)c1cc2c(Oc3ccc(NC(=O)C4(C(=O)Nc5ccc(F)cc5)CC4)cc3)ccnc2cc1N ?
Result: > 300 nM

Ask: Which measured IC50 value corresponds to COc1cc2nccc(Oc3ccc(NC(=O)C4(C(=O)Nc5ccc(F)cc5)CC4)cc3)c2cc1C(=O)NC[C@@H]1CCCN1 ?
Result: 10 to 100 nM

Ask: Which measured IC50 value corresponds to CNC(=O)c1cc2c(Oc3ccc(NC(=O)C4(C(=O)Nc5ccc(F)cc5Cl)CC4)cc3F)ccnc2cc1OC ?
Result: 10 to 100 nM

Ask: Which measured IC50 value corresponds to COc1cc2nccc(Oc3ccc(NC(=O)C4(C(=O)Nc5ccc(F)cc5)CC4)cc3F)c2cc1C(=O)O ?
Result: > 300 nM

Ask: Which measured IC50 value corresponds to CNC(=O)c1cc2c(Oc3ccc(NC(=O)C4(C(=O)Nc5ccc(F)cc5)CC4)cc3)ccnc2cc1OCCO ?
Result: ≤ 10 nM

Ask: Which measured IC50 value corresponds to CONC(=O)c1ccc2c(Oc3ccc(NC(=O)C4(C(=O)Nc5ccc(F)cc5)CC4)cc3)ccnc2c1 ?
Result: 100 to 300 nM

Ask: Which measured IC50 value corresponds to COc1cc2nccc(Oc3ccc(NC(=O)C4(C(=O)Nc5ccc(F)cc5)CC4)cc3)c2cc1-c1cccnc1 ?
Result: 10 to 100 nM

Ask: Which measured IC50 value corresponds to CNC(=O)c1cc2c(Oc3ccc(NC(=O)C4(C(=O)N(C)c5ccc(F)cc5)CC4)cc3)ccnc2cc1OC ?
Result: > 300 nM

Ask: Which measured IC50 value corresponds to CN1CC(NC(=O)c2ccc3nccc(Oc4ccc(NC(=O)C5(C(=O)Nc6ccc(F)cc6)CC5)cc4)c3c2)C1 ?
Result: > 300 nM

###

Target: Human Met (residues R974-S1390 with A1209G and V1290L) (Homo sapiens, UniProt P08581)
Assay: Human Met kinase assay (33P radiometric, KinaseProfiler)
Details: 10 μM ATP, read-out: c-Met IC50
For each entry below, report its IC50 value.

Ask: Which measured IC50 value corresponds to COc1cc2nccc(Oc3ccc(NC(=O)C4(C(=O)Nc5ccc(F)cc5)CC4)cc3)c2cc1C(=O)N1CC(O)C1 ?
Result: ≤ 0.01 µM

Ask: Which measured IC50 value corresponds to COc1cc2nccc(Oc3ccc(NC(=O)C4(C(=O)Nc5ccc(F)cc5)CC4)cc3)c2cc1-c1cccn1C(=O)OC(C)(C)C ?
Result: 0.01 to 0.1 µM

Ask: Which measured IC50 value corresponds to CNC(=O)c1cc2nccc(Oc3ccc(NC(=O)C4(C(=O)Nc5ccc(F)cc5)CC4)cc3)c2cc1OC ?
Result: 0.01 to 0.1 µM

Ask: Which measured IC50 value corresponds to NC(=O)c1cc2c(Oc3ccc(NC(=O)C4(C(=O)Nc5ccc(F)cc5)CC4)cc3)ccnc2cc1F ?
Result: 0.01 to 0.1 µM

Ask: Which measured IC50 value corresponds to COC(=O)c1cc2nccc(Oc3ccc(NC(=O)C4(C(=O)Nc5ccc(F)cc5)CC4)cc3)c2cc1C ?
Result: 0.01 to 0.1 µM

Ask: Which measured IC50 value corresponds to COC(=O)c1cc2c(Oc3ccc(NC(=O)C4(C(=O)Nc5ccc(F)cc5)CC4)cc3F)ccnc2cc1OC ?
Result: ≤ 0.01 µM

Ask: Which measured IC50 value corresponds to CNC(=O)c1cc2nccc(Oc3ccc(NC(=O)C4(C(=O)Nc5ccc(F)cc5)CC4)cc3)c2cc1C ?
Result: ≤ 0.01 µM

Ask: Which measured IC50 value corresponds to COc1cc2nccc(Oc3ccc(NC(=O)C4(C(=O)Nc5ccc(F)cc5)CC4)cc3)c2cc1-c1ccncc1 ?
Result: ≤ 0.01 µM

Ask: Which measured IC50 value corresponds to COc1cc2c(Oc3ccc(NC(=O)C4(C(=O)Nc5ccc(F)cc5)CC4)cc3)ccnc2cc1C(N)=O ?
Result: ≤ 0.01 µM

Ask: Which measured IC50 value corresponds to COc1cc2c(Oc3ccc(NC(=O)C4(C(=O)Nc5ccc(F)cc5)CC4)cc3)ccnc2cc1C(=O)O ?
Result: 0.01 to 0.1 µM

Ask: Which measured IC50 value corresponds to CNC(=O)c1cc2c(Oc3ccc(NC(=O)C4(C(=O)Nc5ccc(F)cc5)CC4)cc3)ccnc2cc1OC ?
Result: ≤ 0.01 µM

Ask: Which measured IC50 value corresponds to COc1cc2nccc(Oc3ccc(NC(=O)C4(C(=O)Nc5ccc(F)cc5)CC4)cc3)c2cc1C(=O)NC1COC1 ?
Result: ≤ 0.01 µM

Ask: Which measured IC50 value corresponds to COc1cc2nccc(Oc3ccc(NC(=O)C4(C(=O)Nc5ccc(F)cc5)CC4)cc3)c2cc1N1CCC1 ?
Result: 0.01 to 0.1 µM

Ask: Which measured IC50 value corresponds to COc1cc2nccc(Oc3ccc(NC(=O)C4(C(=O)Nc5ccc(F)cc5)CC4)cc3)c2cc1-c1nnco1 ?
Result: ≤ 0.01 µM

Ask: Which measured IC50 value corresponds to COc1cc2nccc(Oc3ccc(NC(=O)C4(C(=O)Nc5ccc(F)cc5)CC4)cc3)c2cc1C1CC1 ?
Result: 0.01 to 0.1 µM

Reference source for all entries: patent US11542259B2
